Attribution: patent US8637679B2

test system: cancer cell lines; test: MTT assay, pooled cancer cell lines of several cancer types; type: cell-based, human; conditions: range over glioma and cervical cancer cell lines, 48 hr; listed as 1b; read-out: IC50, glioma and cervical cancer cells
Endpoint label: IC50

Prompt: Lab request: please report IC50 under test system cancer cell lines for CC(C)=CCCC1(C)C=Cc2c(c(C)cc3c2[nH]c2cc(O)ccc23)O1 (stereo not shown)
Response: 30 to 50 µM

----------
system: SW480; experiment: MTT cell viability assay, SW480; assay type: cell-based, human; conditions: Homo sapiens; SW480, 48 hrs
Endpoint label: IC50 (µM)
// units = µM; emit number, no label

Prompt: What does the data say about its IC50? Entry: CC(C)=CCCC1(C)C=Cc2c(c(C)cc3c2[nH]c2cc(O)ccc23)O1 (stereo not shown)
Response: 16

----------
tested on: K562; assay: MTT cell viability assay, K562; type: cell-based, human; settings: Homo sapiens; K562, 48 hrs
Endpoint label: IC50 (µM)
// units = µM; emit number, no label

Prompt: What does the data say about its IC50? Entry: CC(C)=CCCC1(C)C=Cc2c(c(C)cc3c2[nH]c2cc(O)ccc23)O1 (stereo not shown)
Response: 13

----------
tested on: SiHa; assay: MTT cell viability assay, SiHa; format: cell-based; settings: Homo sapiens, 48 hr
Endpoint label: pIC50
// returns pIC50 (minus log10 of molar concentration), number only

Prompt: What does the data say about its pIC50? Entry: CC(C)=CCCC1(C)C=Cc2c(c(C)cc3c2[nH]c2cc(O)ccc23)O1 (stereo not shown) [Mahanine, mahanine]
Response: 4.84

----------
test system: K562; experiment: MTT cell viability assay, K562; assay type: cell-based, human; conditions: K562, 48 hrs
Endpoint label: IC50 (µM)
// units = µM; emit number, no label

Prompt: What does the data say about its IC50? Entry: CC(C)=CCCC1(C)C=Cc2c(c(C)cc3c2[nH]c2ccccc23)O1 (stereo not shown)
Response: 25.1

----------
experiment: In vivo toxicity in mice; settings: mouse, in vivo
Endpoint label: Creatinine (mg/dL)
// units = mg/dL; emit number, no label

Prompt: What does the data say about its Creatinine? Entry: CC(C)=CCCC1(C)C=Cc2c(c(C)cc3c2[nH]c2cc(O)ccc23)O1 (stereo not shown)
Response: 3.72

----------
tested on: Molt-3; test: MTT cell viability assay, Molt-3; type: cell-based, human; conditions: Homo sapiens; Molt-3, 48 hrs
Endpoint label: IC50 (µM)
// units = µM; emit number, no label

Prompt: What does the data say about its IC50? Entry: CC(C)=CCCC1(C)C=Cc2c(c(C)cc3c2[nH]c2cc(O)ccc23)O1 (stereo not shown) [Mahanine, mahanine]
Response: 10.6

----------
tested on: U373MG; assay: MTT cell viability assay, U373MG; assay type: cell-based, human; conditions: Homo sapiens, U373 MG, 48 hrs
Endpoint label: IC50
Respond with a number, then the unit of measure.

Prompt: What does the data say about its IC50? Entry: CC(C)=CCCC1(C)C=Cc2c(c(C)cc3c2[nH]c2cc(O)ccc23)O1 (stereo not shown)
Response: 16.8 µM

----------
assay: In vivo toxicity in mice; settings: mouse, in vivo
Endpoint label: Urea (mg/dL)
// units = mg/dL; emit number, no label

Prompt: What does the data say about its Urea? Entry: CC(C)=CCCC1(C)C=Cc2c(c(C)cc3c2[nH]c2cc(O)ccc23)O1 (stereo not shown)
Response: 48.6
